Origin of measurements: PubChem BioAssay AID1220

TESTED ON: Mannose-6-phosphate isomerase (Homo sapiens) (UniProt P34949)
Sequence (P34949 whole entry, looked up): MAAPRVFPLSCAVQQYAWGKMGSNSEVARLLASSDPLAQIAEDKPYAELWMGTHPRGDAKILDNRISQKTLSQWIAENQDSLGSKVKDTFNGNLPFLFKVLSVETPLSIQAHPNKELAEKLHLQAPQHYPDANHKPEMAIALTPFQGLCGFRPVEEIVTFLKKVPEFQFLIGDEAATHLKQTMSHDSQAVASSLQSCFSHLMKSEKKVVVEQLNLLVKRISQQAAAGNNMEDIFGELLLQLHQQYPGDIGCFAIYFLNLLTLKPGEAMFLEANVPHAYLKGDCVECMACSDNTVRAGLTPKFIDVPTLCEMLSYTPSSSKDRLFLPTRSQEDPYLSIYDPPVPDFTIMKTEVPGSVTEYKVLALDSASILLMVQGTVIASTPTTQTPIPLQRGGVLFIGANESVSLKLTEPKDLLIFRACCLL
ASSAY SUMMARY: MPI inhibition at elevated mannose 6-phosphate – biochemical, fluorescence intensity, high mannose 6-phosphate, primary screen (AID 1220)
EXPERIMENTAL PARAMETERS: recombinant PMI enzyme, coupled fluorescence intensity; at 20 µM; hits give high values
Out of some 190,000 compounds screened, about 1,300 (0.68%) were called active. The sample holds actives, similar compounds and a random draw of the others, so the mix is not that of the screen.
Measured inhibition, listed per entry.
Give just the number in %; leave the unit off.

Below, each entry is followed by its recorded inhibition result.
{"columns": ["COMPOUND", "TESTED ON", "UNIT LABEL", "inhibition"],
 "data": [
  ["CCCN1C(=O)S/C(=C\\c2ccc(N3CCOCC3)o2)C1=O", "Mannose-6-phosphate isomerase (Homo sapiens) (UniProt P34949)", "%", 52.4],
  ["CCCCN(C)C(=O)c1cc2cc3cc(OC)ccc3nc2o1", "Mannose-6-phosphate isomerase (Homo sapiens) (UniProt P34949)", "%", 16.4],
  ["CCN(CC)c1ccc(NC(=O)c2ccccc2F)cc1S(=O)(=O)Nc1ccccc1OC", "Mannose-6-phosphate isomerase (Homo sapiens) (UniProt P34949)", "%", -13.8],
  ["Cc1ccc(C)n1-c1ccncc1", "Mannose-6-phosphate isomerase (Homo sapiens) (UniProt P34949)", "%", 3.1],
  ["O=C1N/C(=C/c2ccc(N3CCOCC3)o2)C(=O)N1c1ccccc1", "Mannose-6-phosphate isomerase (Homo sapiens) (UniProt P34949)", "%", 9]
]}

Record COc1ccc(CN2CCN(Cc3csc(C(C)=O)c3)CC2CCO)c(C)c1C (stereo not drawn) , field inhibition: -1.9

Form field inhibition, entry "O=C1S/C(=C\c2ccc(N3CCOCC3)o2)C(=O)N1Cc1ccc(F)cc1" : 57.3

Input "C(=Nc1ccc(Nc2ccccc2)cc1)c1ccc2ccccc2c1" . Output inhibition: -17.3

The compound "O=C(CNC(=S)N(CCCN1CCOCC1)Cc1cccs1)N1CCOCC1" showed inhibition equal to -1.9

###

TESTED ON: Mannose-6-phosphate isomerase (Homo sapiens)
ASSAY SUMMARY: MPI inhibition at elevated mannose 6-phosphate – biochemical, fluorescence intensity, high mannose 6-phosphate, primary screen (AID 1220)
EXPERIMENTAL PARAMETERS: recombinant PMI enzyme, coupled fluorescence intensity; at 20 µM
Out of some 190,000 compounds screened, about 1,300 (0.68%) were called active. Rule as the data show it: active = inhibition above about 50%; inactive = the rest. The sample holds actives, similar compounds and a random draw of the others, so the mix is not that of the screen.
Allowed answers: y = active, n = inactive

Before answering, review these 5 worked examples.
{"columns": ["CHEMICAL STRUCTURE", "TESTED ON", "CLASS"],
 "data": [
  ["COc1ccc(S(=O)(=O)Nc2ccc(O)c(Sc3ncn[nH]3)c2)cc1", "Mannose-6-phosphate isomerase (Homo sapiens)", "n"],
  ["O=S(=O)(Nc1cc(Sc2cccc3cccnc23)c(O)c2ccccc12)c1ccc(F)cc1", "Mannose-6-phosphate isomerase (Homo sapiens)", "y"],
  ["Cc1ccc(S(=O)(=O)Nc2cccc3cccnc23)cc1", "Mannose-6-phosphate isomerase (Homo sapiens)", "n"],
  ["O=S(=O)(Nc1ccccc1O)c1cccc2cccnc12", "Mannose-6-phosphate isomerase (Homo sapiens)", "n"],
  ["O=C(Sc1cccc2cccnc12)c1ccc(F)cc1", "Mannose-6-phosphate isomerase (Homo sapiens)", "n"]
]}

# outcome recorded in this test, key = "Cc1cc(C)c(S(=O)(=O)Nc2cc(SCC(=O)O)c(O)c3ccccc23)cc1C"
n
